target: PRMT5/MEP50 complex (Homo sapiens, UniProt O14744); assay: Inhibition of recombinant human fetal brain FLAG-tagged PRMT5/full length human testis 6His-tagged MEP50 expressed in baculovirus infected insect Sf9 cells using human histone H4 (1 to 15 residues) as substrate preincubated for 30 mins followed by [3H]-SAM addition
Sequence (O14744 whole entry, the tested form may be a part): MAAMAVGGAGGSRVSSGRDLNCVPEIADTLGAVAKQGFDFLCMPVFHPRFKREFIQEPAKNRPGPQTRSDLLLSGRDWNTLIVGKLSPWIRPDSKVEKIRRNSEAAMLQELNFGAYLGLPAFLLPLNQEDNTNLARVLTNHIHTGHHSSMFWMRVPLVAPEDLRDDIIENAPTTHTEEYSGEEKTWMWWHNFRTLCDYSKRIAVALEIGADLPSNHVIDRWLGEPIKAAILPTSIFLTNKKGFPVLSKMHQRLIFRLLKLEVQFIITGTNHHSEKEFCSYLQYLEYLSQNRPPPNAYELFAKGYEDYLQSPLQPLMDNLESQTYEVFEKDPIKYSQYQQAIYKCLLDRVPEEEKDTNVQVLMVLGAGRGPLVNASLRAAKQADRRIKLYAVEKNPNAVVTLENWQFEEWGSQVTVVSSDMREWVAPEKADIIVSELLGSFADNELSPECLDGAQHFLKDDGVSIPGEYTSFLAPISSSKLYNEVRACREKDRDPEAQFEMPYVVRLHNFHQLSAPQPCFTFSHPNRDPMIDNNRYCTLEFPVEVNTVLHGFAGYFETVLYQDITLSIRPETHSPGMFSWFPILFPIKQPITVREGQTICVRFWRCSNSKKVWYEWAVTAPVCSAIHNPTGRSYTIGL
Sequence (Q9BQA1 whole entry, further chain, the tested form may be a part): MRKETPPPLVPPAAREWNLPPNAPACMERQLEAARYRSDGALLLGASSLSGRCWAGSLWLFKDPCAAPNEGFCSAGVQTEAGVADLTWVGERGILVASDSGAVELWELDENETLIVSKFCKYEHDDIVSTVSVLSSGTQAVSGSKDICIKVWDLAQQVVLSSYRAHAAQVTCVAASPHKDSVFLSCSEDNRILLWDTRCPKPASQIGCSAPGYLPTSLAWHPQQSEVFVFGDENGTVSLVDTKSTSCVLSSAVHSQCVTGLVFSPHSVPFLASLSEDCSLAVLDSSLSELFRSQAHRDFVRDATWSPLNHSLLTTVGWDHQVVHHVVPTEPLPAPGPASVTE
pIC50: −log10 of the molar value.
// reported pIC50 per item

Some solved entries appear below for comparison.
O=C(COc1cccc2c1OCC(=O)N2)NCC(O)CN1CCc2ccccc2C1 (stereo unspecified)    5.00 to 6.00
Cn1cnc2ccc(-c3ccnc(NC[C@@H](O)CN4CCc5ccccc5C4)c3)cc21    6.00 to 7.00
O=C(NCC(O)CN1Cc2ccccc2C1)c1cccc(NC2CCOCC2)c1 (stereo unspecified)    6.00 to 7.00

O=C(NCC(O)CN1CCc2ccccc2C1)c1cccc(-c2ccccn2)c1 (stereo unspecified) yielded pIC50 of > 7.00

COc1ccc(-c2cccc(OCC(O)CN3CCc4ccccc4C3)c2)c(Cl)c1 (stereo unspecified) yielded pIC50 of 6.00 to 7.00

Cn1ccc2ccc(-c3cc(NCC(O)CN4CCc5ccccc5C4)ncn3)cc21 (stereo unspecified) yielded pIC50 of 6.00 to 7.00

CC(=O)N1CCC(n2ccc3cnc(-c4cccc(OCC(O)CN5CCc6ccccc6C5)c4)nc32)CC1 (stereo unspecified) yielded pIC50 of 6.00 to 7.00

###

// reported pIC50 per item
target: PRMT5/MEP50 complex (Homo sapiens); experiment: Inhibition of recombinant human fetal brain FLAG-tagged PRMT5/full length human testis 6His-tagged MEP50 expressed in baculovirus infected insect Sf9 cells using human histone H4 (1 to 15 residues) as substrate preincubated for 30 mins followed by [3H]-SAM addition
pIC50: −log10 of the molar value.

Some solved entries appear below for comparison.
Cn1cnc2cc(-c3cc(NCC(O)CN4CCc5ccccc5C4)n[nH]3)ccc21 (configuration not stated)    6.00 to 7.00
O=C(COc1ccccc1N1CCOCC1)NCC(O)CN1CCc2ccccc2C1 (configuration not stated)    > 7.00
Oc1ccc(-c2cccc(OCC(O)CN3CCc4ccccc4C3)c2)cc1 (configuration not stated)    5.00 to 6.00

COc1cc(NC2CCOCC2)cc(C(=O)NCC(O)CN2CCc3ccccc3C2)c1 (configuration not stated) yielded pIC50 of 6.00 to 7.00

CNC(=O)c1cncc(-c2cccc(OCC(O)CN3CCc4ccccc4C3)c2)c1 (configuration not stated) yielded pIC50 of 5.00 to 6.00

OC(COc1cccc(-c2ccc(F)cc2)c1)CN1CCc2ccccc2C1 (configuration not stated) yielded pIC50 of 5.00 to 6.00

OC(COc1cccc(-c2ccccc2Cl)c1)CN1CCc2ccccc2C1 (configuration not stated) yielded pIC50 of 6.00 to 7.00

CC(C)n1nccc1-c1ccc(OCC(O)CN2CCc3ccccc3C2)cc1 (configuration not stated) yielded pIC50 of 4.40 to 5.00

###

target: UniProt:O14744; test: Inhibition of PRMT5 in human Z138 cells assessed as decrease in di-methyl arginine levels after 96 hrs by Western blot method; assay type: cell-based
// reported EC50 per item

Some solved entries appear below for comparison.
CNC(=O)c1ccccc1OCC(=O)NCC(O)CN1CCc2ccccc2C1 (stereo not given)    0.101 to 1 µM
O=C(COc1cccc2cccnc12)NC[C@@H](O)CN1CCc2ccccc2C1    < 0.1 µM
O=C(COc1ccccc1C1CCNC1)NCC(O)CN1CCc2ccccc2C1 (stereo not given)    1 to 10 µM
CN1CCCC(c2ccccc2OCC(=O)NCC(O)CN2CCc3ccccc3C2)C1 (stereo not given)    0.101 to 1 µM
OC(COc1cccc(-c2ccccc2Oc2ccccc2)c1)CN1CCc2ccccc2C1 (stereo not given)    1 to 10 µM

O=C(COc1cccc2c1CCCC2)NCC(O)CN1CCc2ccccc2C1 (stereo not given) yielded EC50 of 0.101 to 1 µM

CC(=O)Nc1cccc(C(=O)NCC(O)CN2CCc3ccccc3C2)c1 (stereo not given) yielded EC50 of 0.101 to 1 µM

O=C(COc1cccc2c1OCC(=O)N2)NCC(O)CN1CCc2ccccc2C1 (stereo not given) yielded EC50 of 1 to 10 µM

O=C(COc1ccccc1-c1cc[nH]n1)NCC(O)CN1Cc2ccccc2C1 (stereo not given) yielded EC50 of 0.101 to 1 µM

Cn1cnc2ccc(-c3cc(NCC(O)CN4CCc5ccccc5C4)n[nH]3)cc21 (stereo not given) yielded EC50 of 0.101 to 1 µM
